- protocol details: self-splicing fitness, log relative to wild type (ln ratio); higher = more splicing; Tetrahymena group I intron in knt gene, E. coli kanamycin selection, DiMSum; sequences stand for … in CUCUCU…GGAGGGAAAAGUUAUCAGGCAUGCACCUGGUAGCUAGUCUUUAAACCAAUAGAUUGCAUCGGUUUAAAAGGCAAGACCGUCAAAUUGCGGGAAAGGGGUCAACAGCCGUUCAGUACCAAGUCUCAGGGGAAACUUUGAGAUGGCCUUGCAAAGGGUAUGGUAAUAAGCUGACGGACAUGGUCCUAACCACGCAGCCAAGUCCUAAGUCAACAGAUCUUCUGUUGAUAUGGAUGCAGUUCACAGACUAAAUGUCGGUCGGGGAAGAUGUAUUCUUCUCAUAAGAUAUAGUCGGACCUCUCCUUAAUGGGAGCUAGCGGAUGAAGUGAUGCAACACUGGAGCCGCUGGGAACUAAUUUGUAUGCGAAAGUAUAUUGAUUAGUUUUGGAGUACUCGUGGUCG;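 also: selection with 25 µg/mL kanamycin versus none on LB agar overnight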
- test parameters: 30 °C
Kind request: treat -3 as inclusive, so self-splicing fitness (ln) at -3 or higher is T, anything lower is F.

Recorded results for 4 sequences are shown here.
• UUCAAGCAAUAUUACGAAUG = F
• GCACAGCAAUAUUACGACGA = T
• UUAGAGCAAUAUUACGUAGU = T
• UAUCAGCAAUAUUACGCACC = T

Qu. Given `UCGGAGCAAUAUUACGGGUU` , state whether its self-splicing fitness (ln) is at least -3.
Ans. T

Qu. Given `UUCUAGCAAUAUUACGCAAA` , state whether its self-splicing fitness (ln) is at least -3.
Ans. T

Qu. Given `AUGAAGCAAUAUUACGUCCC` , state whether its self-splicing fitness (ln) is at least -3.
Ans. T

Qu. Given `AAAAAGCAAUAUUACGUAAA` , state whether its self-splicing fitness (ln) is at least -3.
Ans. T

Qu. Given `ACGGAGCAAUAUUACGUCUC` , state whether its self-splicing fitness (ln) is at least -3.
Ans. F

* * *

- protocol details: self-splicing fitness, log relative to wild type (ln ratio); higher = more splicing; Tetrahymena group I intron in knt gene, E. coli kanamycin selection, DiMSum; sequences stand for … in CUCUCU…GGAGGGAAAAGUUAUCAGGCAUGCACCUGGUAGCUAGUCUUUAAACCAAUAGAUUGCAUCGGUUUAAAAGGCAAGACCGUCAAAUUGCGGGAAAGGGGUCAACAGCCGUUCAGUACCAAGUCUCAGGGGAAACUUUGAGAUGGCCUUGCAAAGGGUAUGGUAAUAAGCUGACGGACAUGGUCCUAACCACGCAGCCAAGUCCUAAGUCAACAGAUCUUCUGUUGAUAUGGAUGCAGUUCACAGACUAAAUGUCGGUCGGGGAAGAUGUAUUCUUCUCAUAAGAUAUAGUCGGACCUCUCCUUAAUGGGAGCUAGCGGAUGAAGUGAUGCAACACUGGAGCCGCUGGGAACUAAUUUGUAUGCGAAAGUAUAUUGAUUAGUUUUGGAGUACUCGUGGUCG
- test parameters: 30 °C
# key: entry, value: self-splicing fitness (ln)
Output spec: single numeric token, no unit.

- GUCAAGCAAUAUUACGACCU: -3.31

Qu. Which measured self-splicing fitness (ln) value corresponds to `CCACAGCAAUAUUACGCUAG` ?
Ans. -3.27

Qu. Which measured self-splicing fitness (ln) value corresponds to `UGUCAGCAAUAUUACGUAGA` ?
Ans. -0.492

Qu. Which measured self-splicing fitness (ln) value corresponds to `ACGGAGCAAUAUUACGCCAG` ?
Ans. -4.18

* * *

# key: entry, value: self-splicing fitness (ln)
- protocol details: self-splicing fitness, log relative to wild type (ln ratio); higher = more splicing; Tetrahymena group I intron in knt gene, E. coli kanamycin selection, DiMSum; sequences stand for … in CUCUCU…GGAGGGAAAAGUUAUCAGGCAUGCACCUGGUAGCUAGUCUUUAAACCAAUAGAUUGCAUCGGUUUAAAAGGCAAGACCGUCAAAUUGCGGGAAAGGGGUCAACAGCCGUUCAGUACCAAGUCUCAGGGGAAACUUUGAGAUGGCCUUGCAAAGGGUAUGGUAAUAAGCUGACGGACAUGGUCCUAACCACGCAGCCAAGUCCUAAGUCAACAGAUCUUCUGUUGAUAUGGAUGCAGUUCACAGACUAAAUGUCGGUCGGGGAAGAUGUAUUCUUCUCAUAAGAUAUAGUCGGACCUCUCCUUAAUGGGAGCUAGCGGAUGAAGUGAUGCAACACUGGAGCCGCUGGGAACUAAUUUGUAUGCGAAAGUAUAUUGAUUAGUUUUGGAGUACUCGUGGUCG
- test parameters: 30 °C

Qu. Which measured self-splicing fitness (ln) value corresponds to `GCAGAGCAAUAUUACGAUCA` ?
Ans. -4.02

Qu. Which measured self-splicing fitness (ln) value corresponds to `CCUAAGCAAUAUUACGCAUA` ?
Ans. -4.08

Qu. Which measured self-splicing fitness (ln) value corresponds to `CACGAGCAAUAUUACGUUUG` ?
Ans. -3.57

Qu. Which measured self-splicing fitness (ln) value corresponds to `ACAGAGCAAUAUUACGGAGA` ?
Ans. -3.21

Qu. Which measured self-splicing fitness (ln) value corresponds to `AGAUAGCAAUAUUACGUCGG` ?
Ans. -1.52

* * *

# key: entry, value: self-splicing fitness (ln)
- protocol details: self-splicing fitness, log relative to wild type (ln ratio); higher = more splicing; Tetrahymena group I intron in knt gene, E. coli kanamycin selection, DiMSum; sequences stand for … in CUCUCU…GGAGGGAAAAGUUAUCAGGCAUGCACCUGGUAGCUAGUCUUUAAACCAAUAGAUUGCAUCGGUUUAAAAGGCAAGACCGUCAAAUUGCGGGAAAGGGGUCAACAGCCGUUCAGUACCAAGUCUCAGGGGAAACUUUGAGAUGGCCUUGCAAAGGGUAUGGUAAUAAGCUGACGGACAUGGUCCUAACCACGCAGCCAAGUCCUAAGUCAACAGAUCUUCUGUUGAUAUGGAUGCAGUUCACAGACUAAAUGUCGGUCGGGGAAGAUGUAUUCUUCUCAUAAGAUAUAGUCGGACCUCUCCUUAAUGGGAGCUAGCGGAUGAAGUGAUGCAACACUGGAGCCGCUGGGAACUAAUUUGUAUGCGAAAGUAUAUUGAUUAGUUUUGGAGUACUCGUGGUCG
- test parameters: 30 °C
Output spec: single numeric token, no unit.

Qu. Which measured self-splicing fitness (ln) value corresponds to `UACGAGCAAUAUUACGUGUA` ?
Ans. -3.39

Qu. Which measured self-splicing fitness (ln) value corresponds to `UGAAAGCAAUAUUACGGGCC` ?
Ans. -3.48

Qu. Which measured self-splicing fitness (ln) value corresponds to `GAAAAGCAAUAUUACGCGGU` ?
Ans. -3.4

Qu. Which measured self-splicing fitness (ln) value corresponds to `ACUGAGCAAUAUUACGUGAA` ?
Ans. -2.94

Qu. Which measured self-splicing fitness (ln) value corresponds to `UUCGAGCAAUAUUACGUCCG` ?
Ans. -3.05

* * *

- protocol details: self-splicing fitness, log relative to wild type (ln ratio); higher = more splicing; Tetrahymena group I intron in knt gene, E. coli kanamycin selection, DiMSum; sequences stand for … in CUCUCU…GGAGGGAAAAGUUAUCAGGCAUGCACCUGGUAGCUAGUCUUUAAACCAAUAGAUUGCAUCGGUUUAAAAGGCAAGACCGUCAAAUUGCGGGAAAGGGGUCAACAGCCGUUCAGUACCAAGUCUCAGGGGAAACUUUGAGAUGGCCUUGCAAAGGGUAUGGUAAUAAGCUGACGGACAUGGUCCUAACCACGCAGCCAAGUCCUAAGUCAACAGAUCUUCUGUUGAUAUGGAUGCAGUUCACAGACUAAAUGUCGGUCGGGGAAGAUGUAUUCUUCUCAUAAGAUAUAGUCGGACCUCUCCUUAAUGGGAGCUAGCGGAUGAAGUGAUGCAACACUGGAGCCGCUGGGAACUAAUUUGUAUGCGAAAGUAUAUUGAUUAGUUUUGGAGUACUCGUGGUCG
- test parameters: 37 °C
# key: entry, value: self-splicing fitness (ln)
Output spec: single numeric token, no unit.

• CGUAAGCAAUAUUACGCUAC = -1.98
• AAUAAGCAAUAUUACGAGGC = -2.31

Qu. Which measured self-splicing fitness (ln) value corresponds to `CAGUAGCAAUAUUACGUGAG` ?
Ans. -0.54

Qu. Which measured self-splicing fitness (ln) value corresponds to `AGCAAGCAAUAUUACGUAUA` ?
Ans. -1.85

Qu. Which measured self-splicing fitness (ln) value corresponds to `CUACAGCAAUAUUACGACCA` ?
Ans. -2.31

Qu. Which measured self-splicing fitness (ln) value corresponds to `GUUUAGCAAUAUUACGCGCU` ?
Ans. -0.397

Qu. Which measured self-splicing fitness (ln) value corresponds to `GGGAAGCAAUAUUACGGGUA` ?
Ans. -2.25

Qu. Which measured self-splicing fitness (ln) value corresponds to `UAGCAGCAAUAUUACGUAUG` ?
Ans. -0.563

Qu. Which measured self-splicing fitness (ln) value corresponds to `AACGAGCAAUAUUACGCACU` ?
Ans. -0.611

Qu. Which measured self-splicing fitness (ln) value corresponds to `CUAGAGCAAUAUUACGUGAC` ?
Ans. -1.31

Qu. Which measured self-splicing fitness (ln) value corresponds to `GCACAGCAAUAUUACGCUAC` ?
Ans. -2.29

Qu. Which measured self-splicing fitness (ln) value corresponds to `UUCGAGCAAUAUUACGCAUA` ?
Ans. -1.39

Qu. Which measured self-splicing fitness (ln) value corresponds to `GUCCAGCAAUAUUACGACAA` ?
Ans. -0.902

Qu. Which measured self-splicing fitness (ln) value corresponds to `UGCCAGCAAUAUUACGUCGG` ?
Ans. -2.68

Qu. Which measured self-splicing fitness (ln) value corresponds to `AUUGAGCAAUAUUACGAAUG` ?
Ans. -3.15

Qu. Which measured self-splicing fitness (ln) value corresponds to `AUUAAGCAAUAUUACGAUCG` ?
Ans. -0.671
